# experiment_summary: Ocular distribution of CDO following 28-day topical ocular repeated dose in diabetic rats
# Type: in vivo
# assay_context: rat, retina, 0.1 mg/eye, topical eye 28 days (3 administrations/day, 10 μl/eye) 10 mg/ml, day 29, 0.25 h after single instillation, read-out: CDO μg/g tissue Retina
metric_name: concentration at 0.25 h (µg/g)
# output: bare number, implied unit µg/g

Dear colleague, I am looking for the recorded concentration at 0.25 h of the following compound: O=S(=O)(O)c1cc(O)ccc1O [CDO, Calcium dobesilate monohydrate]
19.5

---

# experiment_summary: Ocular distribution of CDO in rats, single dose topical ocular vs. oral
# Type: in vivo, Sprague Dawley (SD) rat
# assay_context: Sprague Dawley, retina; rat, oral 750 mg/Kg = 150 mg, 3 h; read-out: CDO concentrations Retina
metric_name: concentration at 3 h (ng/g)
Give the value, in units of ng/g, as a plain number.

Record request: concentration at 3 h value, item O=S(=O)(O)c1cc(O)ccc1O [CDO, Calcium dobesilate monohydrate]
2420

---

# experiment_summary: Ocular distribution of CDO in rats, single dose topical ocular vs. oral
# Type: in vivo, Sprague Dawley (SD) rat
# assay_context: Sprague Dawley, retina/choroid; rat, topical eye 10 mg/ml (eye drop of 10 μl) = 0.1 mg, 3 h; read-out: CDO concentrations Retina/Choroid
metric_name: concentration at 3 h (ng/g)
Give your result in ng/g as a bare value.

What measured concentration at 3 h goes with O=S(=O)(O)c1cc(O)ccc1O [CDO, Calcium dobesilate monohydrate] ?
2150

---

# experiment_summary: Ocular distribution of CDO in rats, single dose topical ocular vs. oral
# Format: in vivo, Sprague Dawley (SD) rat
# assay_context: Sprague Dawley, vitreous humour/lens; rat, topical eye 10 mg/ml (eye drop of 10 μl) = 0.1 mg, 1 h; read-out: CDO concentrations Vitreous humour/lens
metric_name: concentration at 1 h (ng/g)
Please respond with the number in ng/g and leave the unit unwritten.

Find the recorded concentration at 1 h belonging to O=S(=O)(O)c1cc(O)ccc1O [CDO, Calcium dobesilate monohydrate] and report it.
1680

---

# experiment_summary: Ocular distribution of CDO in rats, single dose topical ocular vs. oral
# Assay type: in vivo, Sprague Dawley (SD) rat
# assay_context: Sprague Dawley, plasma; rat, oral 200 mg/Kg = 40 mg, 3 h; read-out: CDO concentrations Plasma
metric_name: concentration at 3 h (ng/g)
Use ng/g as the unit, but write only the number.

Data request, read-out concentration at 3 h, for O=S(=O)(O)c1cc(O)ccc1O [CDO, Calcium dobesilate monohydrate]
11400

---

# experiment_summary: Ocular distribution of CDO in rats, single dose topical ocular vs. oral
# Format: in vivo, Sprague Dawley (SD) rat
# assay_context: Sprague Dawley, plasma; rat, oral 750 mg/Kg = 150 mg, 1 h; read-out: CDO concentrations Plasma
metric_name: concentration at 1 h (ng/g)
Just the number please, in ng/g, no unit attached.

Any idea what concentration at 1 h was measured for O=S(=O)(O)c1cc(O)ccc1O [CDO, Calcium dobesilate monohydrate] ?
28800

---

# experiment_summary: Ocular distribution of CDO in rats, single dose topical ocular vs. oral
# Type: in vivo, Sprague Dawley (SD) rat
# assay_context: Sprague-Dawley, plasma; rat, topical eye 100 mg/ml (eye drop of 10 μl) = 1 mg, 1 h; read-out: CDO concentrations Plasma
metric_name: concentration at 1 h (ng/g)
State the answer as a number, implicitly in ng/g.

For the compound O=S(=O)(O)c1cc(O)ccc1O [CDO, Calcium dobesilate monohydrate] , what concentration at 1 h is on record?
370

---

# experiment_summary: Ocular distribution of CDO in rats, single dose topical ocular vs. oral
# Format: in vivo, Sprague Dawley (SD) rat
# assay_context: Sprague-Dawley, plasma; rat, topical eye 10 mg/ml (eye drop of 10 μl) = 0.1 mg, 3 h; read-out: CDO concentrations Plasma
metric_name: concentration at 3 h (ng/g)
Reply with just the number (in ng/g).

Report concentration at 3 h for O=S(=O)(O)c1cc(O)ccc1O [CDO, Calcium dobesilate monohydrate] please.
80

---

# experiment_summary: Ocular distribution of CDO in rabbits, single dose topical ocular vs. oral
# Assay type: in vivo, New Zealand White rabbit
# assay_context: New Zealand White, optic nerve; rabbit, Oral 25 mg/Kg = 45 mg, 6 h; read-out: CDO μg/g tissue Optic nerve
metric_name: concentration at 6 h
Give the number first and the unit second.

What does the record list as concentration at 6 h for O=S(=O)(O)c1cc(O)ccc1O [CDO, Calcium dobesilate monohydrate] ?
0.1 µg/g

---

# experiment_summary: Ocular distribution of etamsylate following topical ocular single dose in rats
# Format: in vivo, Sprague Dawley (SD) rat
# assay_context: Sprague-Dawley, rat, optic nerve, 1.26 mg, read-out: CDO μg/g tissue Optic nerve
metric_name: concentration at 3 h (µg/g)
The reply should contain only the number, in µg/g.

Item under review: O=S(=O)(O)c1cc(O)ccc1O [CDO, Calcium dobesilate monohydrate] . Reported concentration at 3 h?
2.67

---

# experiment_summary: Ocular distribution of CDO in rats, single dose topical ocular vs. oral
# Format: in vivo, Sprague Dawley (SD) rat
# assay_context: Sprague Dawley, plasma; rat, oral 200 mg/Kg = 40 mg, 0.25 h; read-out: CDO concentrations Plasma
metric_name: concentration at 0.25 h
// return the numeric value with its unit appended

Form field: reported concentration at 0.25 h of O=S(=O)(O)c1cc(O)ccc1O [CDO, Calcium dobesilate monohydrate]
3100 ng/g

---

# experiment_summary: Ocular distribution of etamsylate following topical ocular single dose in rats
# Type: in vivo, Sprague Dawley (SD) rat
# assay_context: Sprague-Dawley, rat, optic nerve, 0.126 mg, read-out: CDO μg/g tissue Optic nerve
metric_name: concentration at 0.25 h
The reply should read as a number followed by its unit.

Which concentration at 0.25 h is listed for O=S(=O)(O)c1cc(O)ccc1O [CDO, Calcium dobesilate monohydrate] ?
36.5 µg/g

---

# experiment_summary: Ocular distribution of CDO in rats, single dose topical ocular vs. oral
# Assay type: in vivo, Sprague Dawley (SD) rat
# assay_context: Sprague Dawley, plasma; rat, oral 750 mg/Kg = 150 mg, 3 h; read-out: CDO concentrations Plasma
# Experimental: In Sprague Dawley (SD) rat, weighing approximately 200 g, CDO was administered by topical ocular instillation (10 μl/eye) at 10 mg/ml (composition 2 of Example 1), at 100 mg/ml (composition 5 of Example 1) or by oral gavage at 50 mg/kg, at 200 mg/kg or at 750 mg/kg in aqueous solution (from compositions 1, 3 and 4, respectively, of Example 1). […] Bioanalysis of CDO was performed depending on the type of matrix. […] After centrifugation, samples were analyzed by UPLC-MS/MS. […]
metric_name: concentration at 3 h (ng/g)
Number only, in ng/g; omit the unit.

Which concentration at 3 h is reported for this compound? O=S(=O)(O)c1cc(O)ccc1O [CDO, Calcium dobesilate monohydrate]
47600

---

# experiment_summary: Ocular distribution of CDO in rats, single dose topical ocular vs. oral
# Format: in vivo, Sprague Dawley (SD) rat
# assay_context: Sprague Dawley, optic nerve; rat, oral 50 mg/Kg = 10 mg, 3 h; read-out: CDO concentrations Optic nerve
metric_name: concentration at 3 h (ng/g)
Record the value in ng/g, omitting the unit from your answer.

Param item = O=S(=O)(O)c1cc(O)ccc1O [CDO, Calcium dobesilate monohydrate] ; retrieve measured concentration at 3 h.
1890

---

# experiment_summary: Ocular distribution of CDO in rabbits, single dose topical ocular vs. oral
# Format: in vivo, New Zealand White rabbit
# assay_context: New Zealand White, retina/choroid; rabbit, Topical eye administration 100 mg/ml = 3.3 mg, 0.25 h; read-out: CDO μg/g tissue Retina/Choroid
metric_name: concentration at 0.25 h (µg/g)
Reply numerically in µg/g, unit not repeated.

Quick one: concentration at 0.25 h for O=S(=O)(O)c1cc(O)ccc1O [CDO, Calcium dobesilate monohydrate] ?
7.88

---

# experiment_summary: Ocular distribution of CDO in rats, single dose topical ocular vs. oral
# Assay type: in vivo, Sprague Dawley (SD) rat
# assay_context: Sprague Dawley, cornea; rat, topical eye 100 mg/ml (eye drop of 10 μl) = 1 mg, 1 h; read-out: CDO concentrations Cornea
# Protocol: In Sprague Dawley (SD) rat, weighing approximately 200 g, CDO was administered by topical ocular instillation (10 μl/eye) at 10 mg/ml (composition 2 of Example 1), at 100 mg/ml (composition 5 of Example 1) or by oral gavage at 50 mg/kg, at 200 mg/kg or at 750 mg/kg in aqueous solution (from compositions 1, 3 and 4, respectively, of Example 1). […] Bioanalysis of CDO was performed depending on the type of matrix. […] After centrifugation, samples were analyzed by UPLC-MS/MS. […]
metric_name: concentration at 1 h (ng/g)
Field: numeric (ng/g). Do not append units.

What value of concentration at 1 h has been reported for the following molecule? O=S(=O)(O)c1cc(O)ccc1O [CDO, Calcium dobesilate monohydrate]
1720

These entries and their values trace back to patent US20200390729A1.
